Assay: blockers of DNA damage checkpoint Chk1 activation – imaging, HeLa, hydroxyurea, phospho-Chk1 nuclear intensity, primary screen (AID 1187); further: test concentration not given here
Details: hydroxyurea-induced phospho-Chk1 immunofluorescence imaging, higher = more signal
READOUT_KIND: z-score
Please give only the number in your answer, with no unit.

[[record]]
molecule = "C#Cc1cc2ccccc2oc1=O"
readout_kind = "z-score"
number = -0.6

[[record]]
molecule = "CC(C)NC(=O)[C@@]1(C)c2ccccc2C(=O)N(Cc2ccc(OC(F)(F)F)cc2)[C@H]1c1ccc(CO)cc1"
readout_kind = "z-score"
number = -0.0444

[[record]]
molecule = "CCCCNC(=O)c1ccc(C#CC(C)(C)C)c(OC(C)=O)c1"
readout_kind = "z-score"
number = 0.411

[[record]]
molecule = "CC(=O)NCCCC[C@@H]1NC(=O)[C@@H]2C[C@H](C(=O)NCCCCCN)[C@H](c3cccc(OCCO)c3)N2C1=O"
readout_kind = "z-score"
number = -0.913

[[record]]
molecule = "NC(=O)NCC#Cc1ccc2c(c1)[C@]1(C(=O)N2)[C@H](C(=O)N2CCN(c3ncccn3)CC2)[C@H]2C(=O)O[C@H](c3ccccc3)[C@H](c3ccccc3)N2[C@@H]1c1ccc(O)cc1"
readout_kind = "z-score"
number = 0.359


Data request, read-out z-score, for Cc1ccc(F)cc1S(=O)(=O)N[C@@H]1CCN(Cc2ccc(Br)cc2)C1
-0.335

Try this molecule too: COC(=O)C1(CC(C)C)C=C2C(=C(c3ccccc3)C(=O)C2C)CN1 (configuration not stated)
-1.13

Then this molecule: CCOC(=O)C[C@H]1[C@H](OC(=O)c2ccc(C(=O)c3ccccc3)cc2)[C@@H](NC(=O)c2ccc(-c3ccccc3)cc2)c2cc(OCCCO)ccc2N1C(=O)Cc1ccc(OC)cc1
0.25

* * *

# z-score per record follows
Assay: hepatitis C replication reporter changes, two-sided – Huh7 cells, luciferase reporter, HCV replication inhibitor project, primary screen (AID 1109);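 further: huh7 hepatoma cells harbouring a luciferase neomycin HCV replicon reporter; luciferase luminescence as measure of HCV replicon replication; test concentration not given here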
Settings: Huh7 HCV replicon luciferase reporter, 48 h; higher = more signal

In the examples that follow, each entry is paired with its recorded z-score.
[[record]]
molecule = "CC(CO)N1C(=O)[C@]2(C)C3C(=O)OCCC/C=C\\[C@H]3OC23C=CCN(c2ccc(Cl)cc2)C(=O)[C@@H]13 (some centres undefined)"
readout_kind = "z-score"
result = 0.636

[[record]]
molecule = "CS(=O)(=O)CCOC(=O)C1=CC(CCCO)=CC(c2ccc(CN3CCCC3)cc2)N(Cc2sc3ccccc3c2Cl)C=C1C(=O)OCCS(C)(=O)=O (centres undefined)"
readout_kind = "z-score"
result = -2.64

[[record]]
molecule = "[N-]=[N+]=Nc1ccccc1[C@@H]1OC(c2ccc(OCCCO)cc2)=N[C@]1(Cc1ccccc1)C(=O)N1CCCCC1"
readout_kind = "z-score"
result = -2.57


Please report the recorded z-score for CC[C@@H]1C=C(C(=O)O)[C@H](c2ccccc2)N1S(=O)(=O)c1ccc(C)cc1 .
-1.33

* * *

Assay: probe aCHRDL2 binding to arrayed compounds – biochemical, biotinylated probe, 635/667 nm fluorescence, primary screen (AID 1100)
Conditions: small-molecule microarray, higher = more signal
Attribute: composite z-score
Give the value as a plain number.

// query composite z-score value for entry COCCOC(=O)N1C(=O)[C@@]2(c3cc(C#CC4=CCCCC4)ccc31)[C@H](c1ccccc1OCCO)N1[C@H](c3ccccc3)[C@H](c3ccccc3)OC(=O)[C@H]1[C@@H]2C(=O)NC[C@H](O)c1ccccc1
-0.135

Queued: CCCCC(=C=CC[C@H](O)c1ccc(OCCO)cc1)CCO
0.208

Please give the result for COCC(=C=CC[C@H](O)c1ccc(CO)o1)CCO too.
-0.336

Check C=CCOC(=O)[C@@]1(Cc2ccccc2)C[C@H]2CO[C@H](c3ccc(OC)cc3)N2C1=O too.
-0.0084
